Test system: HCV replicon cells (1b-Con1)
Assay: Replicon activity assay (cell-based anti-HCV activity)
Conditions: Hepatitis C virus, 72 h, three days post-dosing, replicon RNA level by real-time RT-PCR, read-out: EC50 (1b) Range
pEC50: −log10 of the molar value.
ENDPOINT: pEC50

>  <COMPOUND>
CC(C)OC(=O)CCCCCO[P@]1(=O)OC[C@H]2O[C@@H](n3ccc(=O)[nH]c3=O)[C@](C)(N)[C@@H]2O1 [Compound 25B]

>  <pEC50>
< 5.00

$$$$

Enquiry: Given the entry `CCOc1nc(N)nc2c1ncn2[C@@H]1O[C@@H]2CO[P@@](=O)(OCCCC(=O)OC(C)C)O[C@H]2[C@@]1(C)N` , report its measured pEC50.
Return: 5.00 to 6.00

Enquiry: Follow-up entry: `C[C@@]1(N)[C@@H]2O[P@](=O)(OCCCC(=O)OC3CCCC3)OC[C@H]2O[C@H]1n1ccc(=O)[nH]c1=O`
Return: < 5.00

Enquiry: Request: C#C[C@@]1(O)[C@@H]2O[P@@](=O)(OCCCCC(=O)OC3CCCC3)OC[C@H]2O[C@H]1n1ccc(=O)[nH]c1=O [Compound 24A]
Return: 5.00 to 6.00

Enquiry: # repeat for `C[C@@]1(Cl)[C@@H]2O[P@@](=O)(OCCCC(=O)OC3CCCC3)OC[C@H]2O[C@H]1n1ccc(N)nc1=O`
Return: < 5.00

Enquiry: Subsequent entry: C#C[C@]1(C)[C@@H]2O[P@](=O)(OCCCC(=O)OC(C)C)OC[C@H]2O[C@H]1n1ccc(=O)[nH]c1=O [Compound 11B]
Return: 6.00 to 6.60

Just for reference, patent US10899788B2 is where these values come from.
